Reference for the values: patent US20260116963A1

system-under-test: T1, human IL-13 (human, UniProt P35225 25-146, limits assumed)
T1 construct: The KinExA antigen was detected with an anti-HIS IgG, so it probably carried a HIS tag; also called Interleukin-13; hIL-13
T1 sequence (P35225 other isoform, or with tags, fused parts or gaps limits assumed): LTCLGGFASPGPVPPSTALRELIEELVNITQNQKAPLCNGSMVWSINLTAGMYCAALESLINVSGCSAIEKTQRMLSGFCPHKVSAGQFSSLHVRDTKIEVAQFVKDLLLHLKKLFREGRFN
assay-explanation: SPR array (Carterra LSA), antibody captured on anti-human pAb HC30M chip, human IL-13 0.05-100 nM as analyte, 25 C, 1:1 fit

binder	kon / M⁻¹ s⁻¹
NB-1 (antibody, human IgG4 S228P, kappa, V domains shown) VH: QVTLRESGPALVKPTQTLTLTCTVSGASLSAYSVNWIRQPPGKALEWLAMIWGDGKIVYNSALKSRLTISKDTSKNQVVLTMTNMDPVDTATYYCAGLGYYPYAMDLWGQGSLVTVSS VL: DIVMTQSPDSLSVSLGERATINCRASKSVDSYGNSFMHWYQQKPGQPPKLLIYLASNLESGVPDRFSGSGSGTDFTLTISSLQAEDVAVYYCQQNNEDPRTFGGGTKVEIKR	117000
